Overview of recorded IC50 of virus neutralization (TZM-BL, luciferase) for various binders
Molecular target: HIV-1 X1632_S2_B10 envelope (Env) on Env.IMC.LucR virus (HIV-1 clade G)
Assay: cell-based or functional assay
measured.metric: IC50 of virus neutralization (TZM-BL, luciferase)

{"binder": "Germ12 (antibody, V domains shown) VH: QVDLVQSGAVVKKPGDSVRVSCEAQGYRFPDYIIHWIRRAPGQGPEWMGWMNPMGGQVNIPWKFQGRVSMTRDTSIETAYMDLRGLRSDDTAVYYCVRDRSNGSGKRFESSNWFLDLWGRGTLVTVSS VL: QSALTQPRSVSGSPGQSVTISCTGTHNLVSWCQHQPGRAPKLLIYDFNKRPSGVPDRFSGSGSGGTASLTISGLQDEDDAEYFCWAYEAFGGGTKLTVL", "reported.result": "> 50 µg/mL"}
{"binder": "Germ17 (antibody, V domains shown) VH: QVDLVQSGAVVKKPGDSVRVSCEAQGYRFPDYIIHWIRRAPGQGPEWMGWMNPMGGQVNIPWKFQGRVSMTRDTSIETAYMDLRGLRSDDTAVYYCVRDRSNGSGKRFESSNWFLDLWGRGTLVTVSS VL: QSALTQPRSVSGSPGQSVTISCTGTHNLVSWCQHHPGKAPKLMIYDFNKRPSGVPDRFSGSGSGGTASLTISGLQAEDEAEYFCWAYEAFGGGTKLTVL", "reported.result": "> 50 µg/mL"}
